- TARGET OF ASSAY: PPARα (Homo sapiens, UniProt Q07869)
- Sequence (Q07869 200-468 limits assumed): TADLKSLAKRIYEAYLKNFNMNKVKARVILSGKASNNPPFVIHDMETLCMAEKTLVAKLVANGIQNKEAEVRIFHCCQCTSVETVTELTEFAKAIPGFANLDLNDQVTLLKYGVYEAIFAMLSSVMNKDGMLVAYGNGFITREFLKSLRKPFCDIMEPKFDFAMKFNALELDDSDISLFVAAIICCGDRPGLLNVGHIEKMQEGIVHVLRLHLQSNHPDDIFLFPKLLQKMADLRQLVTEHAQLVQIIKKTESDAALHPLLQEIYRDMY
- PROCEDURE DETAILS: Crossed-curve PPAR transactivation assay (PPARα)
- TEST PARAMETERS: HeLN cells stably transfected with Gal-hPPARα and luciferase reporter; Schild regression against reference agonist; n.a. means not active; read-out: PPARα Kdapp
MEASURED PARAMETER: Kd (nM)

I: CCCCCCC(=O)N(C)Cc1cccc(-c2ccc(CCC(=O)O)cc2OCCCC)c1
II: CCCCCC(=O)N(C)Cc1cccc(-c2ccc(CCC(=O)O)cc2OCCCC)c1
Sorting ascending by Kd, which comes first: I or II ? Field: selected label. Fill in the label of the entry you choose.
I
(I: 500 nM, II: 4000 nM)

====

- TARGET OF ASSAY: PPARγ (Homo sapiens, UniProt P37231)
- PROCEDURE DETAILS: Crossed-curve PPAR transactivation assay (PPARγ)
- TEST PARAMETERS: HeLN cells stably transfected with Gal-hPPARγ and luciferase reporter; Schild regression against reference agonist; n.a. means not active; read-out: PPARγ Kdapp
MEASURED PARAMETER: Kd (nM)

Recorded results for 4 compounds are shown here.
Suppose we examine the compound CCCCCCCC(=O)N(C)Cc1cccc(-c2ccc(CCC(=O)O)cc2)c1 [Example 2] ; what Kd value has been reported?
120

Same lookup for CCCCCCCC(=O)N(C)Cc1cccc(-c2ccc(CCC(=O)O)c(F)c2)c1 [Example 4] , please.
250

Same lookup for CCCCOc1cc(CCC(=O)O)ccc1-c1cccc(CN(C)C(=O)c2ccc(OC)cc2)c1 [Example 15] , please.
0.5

Same lookup for CCCCOc1cc(CCC(=O)O)ccc1-c1cccc(CN(C)C(=O)c2cccc(OC)c2)c1 [Example 16] , please.
4

1: CCCCOc1cc(CCC(=O)O)ccc1-c1cccc(CN(C)C(=O)c2ccc(OCC)cc2)c1 [Example 12]
2: CCCCCCCC(=O)NCc1cccc(-c2ccc(CCC(=O)O)cc2)c1 [Example 6]
Sorting ascending by Kd, which comes first: 1 or 2 ? Field: selected label. Fill in the label of the entry you choose.
1
(1: 0.25 nM, 2: 4000 nM)

A: CCCCCCCC(=O)N(C)Cc1cccc(-c2ccc(/C=C/C(=O)O)cc2)c1 [Example 1]
B: CCCCOc1ccc(C(=O)N(C)Cc2cccc(-c3ccc(CCC(=O)O)cc3OCCCC)c2)cc1 [Example 13]
C: CCCCCCCC(=O)N(C)Cc1cccc(-c2ccc(/C=C/C(=O)O)c(F)c2)c1 [Example 3]
# desc sort on Kd across 3 compounds Reply format: the labels, ordered as requested.
A, C, B
(A: 500 nM, C: 60 nM, B: 1 nM)

====

- TARGET OF ASSAY: PPARγ (Homo sapiens, UniProt P37231)
- Sequence (P37231 238-505 limits assumed): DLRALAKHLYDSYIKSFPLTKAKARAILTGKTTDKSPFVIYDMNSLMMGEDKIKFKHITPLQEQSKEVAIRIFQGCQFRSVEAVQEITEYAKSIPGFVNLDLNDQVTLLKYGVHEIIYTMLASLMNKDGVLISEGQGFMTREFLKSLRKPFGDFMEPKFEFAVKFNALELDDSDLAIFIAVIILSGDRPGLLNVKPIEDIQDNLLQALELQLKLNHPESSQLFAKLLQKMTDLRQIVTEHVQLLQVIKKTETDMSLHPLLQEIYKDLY
- PROCEDURE DETAILS: Crossed-curve PPAR transactivation assay (PPARγ)
- TEST PARAMETERS: HeLN cells stably transfected with Gal-hPPARγ and luciferase reporter; Schild regression against reference agonist; n.a. means not active; read-out: PPARγ Kdapp
- Protocol: Activation of the PPAR receptors by an agonist (activator) in HeLN cells leads to the expression of a reporter gene, luciferase, which, in the presence of a substrate, generates light. The modulation of the PPAR receptors is measured by quantifying the luminescence produced after incubation of the cells in the presence of a reference agonist. The ligands will displace the agonist from its site. The measurement of the activity is performed by quantifying the light produced. […]
MEASURED PARAMETER: Kd (nM)

Recorded results for 2 molecules are shown here.
Suppose we examine the molecule `CCCCCCC(=O)N(C)Cc1cccc(-c2ccc(CCC(=O)O)cc2OCCCC)c1` ; what Kd value has been reported?
1

Same lookup for `CCCCCC(=O)N(C)Cc1cccc(-c2ccc(CCC(=O)O)cc2OCCCC)c1` , please.
4

1: CCCCOc1cc(CCC(=O)O)ccc1-c1cccc(CN(C)C(=O)CCCC)c1
2: CCCCCCCC(=O)N(C)Cc1cccc(-c2ccc(CCC(=O)O)c(O)c2)c1
3: CCCCCCCC(=O)N(C)Cc1cccc(-c2ccc(CCC(=O)O)cc2OCCCC)c1
4: CCCCOc1cc(CCC(=O)O)ccc1-c1cccc(CN(C)C(=O)c2ccccc2)c1
Arrange the 4 molecules by rising Kd, starting with the smallest. Reply format: the labels, ordered as requested.
3, 1, 4, 2
(3: 1 nM, 1: 4 nM, 4: 8 nM, 2: 4000 nM)
